Data credit: patent US6465457B1

Readings of POCO (Percentage of Control) disease level, Plasmopara viticola (Vines) for the listed molecules
Tested on: Plasmopara viticola (Vines)
Test: Foliar fungal disease test on plants: Plasmopara viticola (Vines)
Assay type: in vivo
Conditions: 10 ppm foliar spray only, one or two days before inoculation

Observe how each entry below is paired with its result.
{"STRUCTURE AS SMILES": "COC=C(C(=O)OC)c1ccccc1COC(=O)N(C)c1ccccc1SC", "RESULT": "0 (0 = 0% disease present)"}
{"STRUCTURE AS SMILES": "COC=C(C(=O)OC)c1ccccc1COC(=S)Nc1cccc(OC)c1", "RESULT": "60 (60 = 30.1-60% disease present)"}

QUERY: Quickly give me recorded POCO (Percentage of Control) disease level, Plasmopara viticola (Vines) for COC=C(C(=O)OC)c1ccccc1COC(=S)Oc1ccccc1
RESULT: 3 (3 = 1.1-3% disease present)

QUERY: Quickly give me recorded POCO (Percentage of Control) disease level, Plasmopara viticola (Vines) for COC=C(C(=O)OC)c1ccccc1COC(=O)Nc1ccc(F)c(F)c1
RESULT: 30 (30 = 20.1-30% disease present)

QUERY: Quickly give me recorded POCO (Percentage of Control) disease level, Plasmopara viticola (Vines) for COC=C(C(=O)OC)c1ccccc1COC(=O)n1ccc2ccccc21
RESULT: 0 (0 = 0% disease present)

QUERY: Quickly give me recorded POCO (Percentage of Control) disease level, Plasmopara viticola (Vines) for COC=C(C(=O)OC)c1ccccc1COC(=S)Nc1ccc(Cl)cc1
RESULT: 0 (0 = 0% disease present)

QUERY: Quickly give me recorded POCO (Percentage of Control) disease level, Plasmopara viticola (Vines) for COC=C(C(=O)OC)c1ccccc1COC(=S)Nc1cccc(F)c1
RESULT: 60 (60 = 30.1-60% disease present)
